Test system: H1048 cells
Assay: Cell viability assay (CellTiter-Glo), H1048 cells
Type: cell-based
Conditions: Homo sapiens, NCI-H1048, 72 h; H1048, 10 μM, 3 days
Kindly supply the reported viability at 10 µM values for the records listed here.
Dear colleague, please return just the value in %, with no unit written.

// query Which viability at 10 µM is reported for this compound? Cc1c(Cl)cccc1NC(=O)NCc1ccc2c(c1)CN([C@H]1CCCC(=O)NC1=O)C2=O [Compound 5]
// result 2.36

// query Which viability at 10 µM is reported for this compound? Cc1ccc(NC(=O)NCCc2cccc3c2CN([C@H]2CCCC(=O)NC2=O)C3=O)cc1Cl [Compound 23]
// result 25.1

// query Which viability at 10 µM is reported for this compound? O=C1CCC[C@H](N2Cc3cc(CNC(=O)C(F)(F)c4ccc(F)cc4)ccc3C2=O)C(=O)N1 [Compound 25]
// result 26.6

// query Which viability at 10 µM is reported for this compound? Cc1ccc(NC(=S)NCc2ccc3c(c2)CN([C@H]2CCCC(=O)NC2=O)C3=O)cc1Cl [Compound 26]
// result 4.54

* * *

Tested on: H1048 cells
Assay: Cell viability assay (CellTiter-Glo), H1048 cells
Assay type: cell-based
Conditions: Homo sapiens, NCI-H1048, 72 h; H1048, 10 μM, 3 days
Procedure: Molm-13 cells were cultivated in RPMI-1640 (10% FBS/1% pen-strep) and were plated in white walled 96-well plates at 20,000 cells/well. […] Cells were treated with compound at the indicated concentration or DMSO (control) and the cultures were incubated for 3 days at 37° C. and 5% CO2. […] Following a 10 min incubation with shaking, luminescence was measured using a Victor Wallac Luminometer.
Kindly supply the reported viability at 10 µM values for the records listed here.
Dear colleague, please return just the value in %, with no unit written.

// query Which viability at 10 µM is reported for this compound? Cc1ccc(NC(=O)NCc2ccc3c(c2)CN(C2CCCC(=O)NC2=O)C3=O)cc1 (stereo not drawn)
// result 4.93

// query Which viability at 10 µM is reported for this compound? "Cc1ccc(NC(=O)NCc2cccc3c2CN([C@H]2CCCC(=O)NC2=O)C3=O)cc1Cl"
// result 34.9

// query Which viability at 10 µM is reported for this compound? "O=C(Cc1ccc(C(F)(F)F)c(Cl)c1)NCc1ccc2c(c1)CN([C@H]1CCCC(=O)NC1=O)C2=O"
// result 21.5

// query Which viability at 10 µM is reported for this compound? O=C1CCCC(N2Cc3cc(CNC(=O)Nc4cccc(Cl)c4)ccc3C2=O)C(=O)N1 (stereo not drawn)
// result 6.25

// query Which viability at 10 µM is reported for this compound? "O=C(Cc1cccc(CN2CCOCC2)c1)NCc1ccc2c(c1)CN([C@H]1CCCC(=O)NC1=O)C2=O"
// result 56.2

// query Which viability at 10 µM is reported for this compound? "Cc1ccc(NC(=O)NCc2ccc3c(c2)C(=O)N([C@H]2CCCC(=O)NC2=O)C3=O)cc1Cl"
// result 28.2

* * *

Target: GSPT1 (Homo sapiens)
Construct: Whole cell extract was prepared with RIPA buffer according to manufacturer's protocol; endogenous in cells; host or cells: Jurkat cells
Sequence (P15170 whole entry): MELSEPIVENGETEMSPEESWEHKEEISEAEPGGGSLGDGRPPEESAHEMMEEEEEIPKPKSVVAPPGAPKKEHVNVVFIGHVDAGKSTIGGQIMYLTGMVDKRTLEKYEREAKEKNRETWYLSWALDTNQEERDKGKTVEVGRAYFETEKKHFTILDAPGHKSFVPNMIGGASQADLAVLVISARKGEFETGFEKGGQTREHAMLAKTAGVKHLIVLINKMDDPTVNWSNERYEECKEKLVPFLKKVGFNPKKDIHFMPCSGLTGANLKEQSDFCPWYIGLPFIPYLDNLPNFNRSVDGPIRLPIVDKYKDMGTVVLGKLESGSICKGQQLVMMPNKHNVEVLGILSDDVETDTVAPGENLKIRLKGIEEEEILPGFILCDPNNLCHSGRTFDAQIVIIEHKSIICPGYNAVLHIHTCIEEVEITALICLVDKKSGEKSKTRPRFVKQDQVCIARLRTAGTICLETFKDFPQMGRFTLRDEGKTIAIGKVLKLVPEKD
Assay: Western blot analysis of GSPT1 protein levels in Jurkat cells
Assay type: cell-based
Settings: 1 uM compound, DMSO = 100.00
Kindly supply the reported GSPT1 protein level (% of DMSO control) at 1 µM values for the records listed here.
Dear colleague, please return just the value in %, with no unit written.

// query Which GSPT1 protein level (% of DMSO control) at 1 µM is reported for this molecule? "O=C(Cc1ccc(Cl)c(CN2CCOCC2)c1)NCc1ccc2c(c1)CN([C@H]1CCCC(=O)NC1=O)C2=O"
// result 111

// query Which GSPT1 protein level (% of DMSO control) at 1 µM is reported for this molecule? "Cc1ccc(CC(=O)NCc2ccc3c(c2)CN([C@H]2CCCC(=O)NC2=O)C3=O)cc1CN1CCOCC1"
// result 56

// query Which GSPT1 protein level (% of DMSO control) at 1 µM is reported for this molecule? "COc1ccc(CC(=O)NCc2ccc3c(c2)CN([C@H]2CCCC(=O)NC2=O)C3=O)cc1Cl"
// result 46.2

Just for reference, patent US10857155B2 is where these values come from.
